Details: dog, in vivo, po
# key: entry, value: AUC (mean ngh/mL ± SD), *AUC0-t

- MOLECULE: "CCC1(c2cccc(OC(=O)NC(Cc3ccc(O)cc3)C(=O)O)c2)CCCCN(C)C1.O=C(O)C(F)(F)F (mixture of isomers) [Meptazinol tyrosine carbamate TFA salt]"
  MEASURED_METRIC: "AUC (mean ngh/mL ± SD), *AUC0-t"
  VALUE_REPORTED: "6.61* ± 0.70"
- MOLECULE: "CCC1(c2cccc(OC(=O)NCC(=O)O)c2)CCCCN(C)C1.O=C(O)C(F)(F)F (racemic) [Meptazinol glycine carbamate TFA salt]"
  MEASURED_METRIC: "AUC (mean ngh/mL ± SD), *AUC0-t"
  VALUE_REPORTED: "10.2* ± 3.4"
- MOLECULE: "CCC1(c2cccc(OC(=O)NC(Cc3c[nH]c4ccccc34)C(=O)O)c2)CCCCN(C)C1.O=C(O)C(F)(F)F (mixture of isomers) [Meptazinol tryptophan carbamate TFA salt]"
  MEASURED_METRIC: "AUC (mean ngh/mL ± SD), *AUC0-t"
  VALUE_REPORTED: "19.1* ± 8.9"

Consider the additional molecule presented here.
Return AUC (mean ngh/mL ± SD), *AUC0-t for the following molecule: CCC1(c2cccc(OC(=O)NC(CC(=O)O)C(=O)O)c2)CCCCN(C)C1.O=C(O)C(F)(F)F (mixture of isomers)
34.8* ± 1.0

---

Test: in vivo
Details: dog, iv, intravenous AUC value
MEASURED_METRIC: AUC (ng·h/mL)
Could you give me the number in ng·h/mL? Just the number is fine.

Answer with the recorded AUC of CN1CC[C@]23c4c5ccc(O)c4O[C@H]2C(=O)CC[C@@]3(O)[C@H]1C5 [oxymorphone, 14-hydroxydihydromorphinone] only.
146

---

Details: dog, in vivo, po
MEASURED_METRIC: Cmax (mean ng/mL ± SD)
Please make sure the unit comes right after the number.

Some compounds with known Cmax (mean ng/mL ± SD) results, for comparison:
- COMPOUND: "CCC1(c2cccc(OC(=O)NC(CC(C)C)C(=O)O)c2)CCCCN(C)C1.O=C(O)C(F)(F)F (mixture of isomers) [Meptazinol leucine carbamate TFA salt]"
  Cmax (mean ng/mL ± SD): "3.32 ± 1.4 ng/mL"
- COMPOUND: "CCC1(c2cccc(OC(=O)NCC(=O)O)c2)CCCCN(C)C1.O=C(O)C(F)(F)F (racemic) [Meptazinol glycine carbamate TFA salt]"
  Cmax (mean ng/mL ± SD): "2.51 ± 0.90 ng/mL"
- COMPOUND: "CCC1(c2cccc(OC(=O)NC(CC(=O)O)C(=O)O)c2)CCCCN(C)C1.O=C(O)C(F)(F)F (mixture of isomers)"
  Cmax (mean ng/mL ± SD): "2.65 ± 0.34 ng/mL"
- COMPOUND: "CCC1(c2cccc(OC(=O)NC(Cc3c[nH]c4ccccc34)C(=O)O)c2)CCCCN(C)C1.O=C(O)C(F)(F)F (mixture of isomers) [Meptazinol tryptophan carbamate TFA salt]"
  Cmax (mean ng/mL ± SD): "8.21 ± 2.56 ng/mL"
- COMPOUND: "CCC1(c2cccc(OC(=O)NC(Cc3ccc(O)cc3)C(=O)O)c2)CCCCN(C)C1.O=C(O)C(F)(F)F (mixture of isomers) [Meptazinol tyrosine carbamate TFA salt]"
  Cmax (mean ng/mL ± SD): "2.23 ± 0.16 ng/mL"

Note Cmax (mean ng/mL ± SD) for the compound shown: CCC1(c2cccc(OC(=O)NC(C(=O)OC)C(C)C)c2)CCCCN(C)C1.Cl (mixture of isomers)
44.8 ± 8.2 ng/mL

State, in one line, measured Cmax (mean ng/mL ± SD) of CCC1(c2cccc(OC(=O)NC(C)C(=O)O)c2)CCCCN(C)C1.Cl (mixture of isomers) [Meptazinol alanine carbamate HCl salt]
5.2 ± 1.59 ng/mL
